FYI, the data here is from patent US20110293610A1.

targetEntity: T1, Fas ligand (human, UniProt P48023 134-281, limits assumed)
T1 sequence (looked up): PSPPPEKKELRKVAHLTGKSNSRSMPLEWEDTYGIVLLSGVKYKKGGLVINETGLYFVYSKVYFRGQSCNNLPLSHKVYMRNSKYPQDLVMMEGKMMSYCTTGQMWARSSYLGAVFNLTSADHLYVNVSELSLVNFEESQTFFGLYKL
experimentSummary: phage ELISA

binder	binding result
I008A11 (scFv) scFv: QVQLQQSGPGLVKPSQILSLTCAISGDSVASNGAAWNWIRQSPSRGLEWLGRTYYRSKWYVDYAVSVKSRITINPDTSKNQFSLQLNSVTPEDTAVYYCARDRYDILTGYYYYGMDVWGQGTMVTVSSGGGGSGGGGSGGGGSQSALTQPASVSGSRGQSITISCTGTTGDVGGYDYVSWYQQHPGKAPKLLIYGNSNRPSGVPDRFSASKSGNTASLTISGLQAEDEADYFCSTYAPPGIIMFGGGTKLTVLG	no binding
I008B01 (scFv) scFv: QVQLVQSGAEVMKPGASVKVSCKASGYNFNNYAMQWVRQAPGQRLEWMGWIVPGNGKTKYSQKFQDRVTIARDTSASTVYMELSSLTSEDTAMYYCARATYDPLTGYSFDGFDIWGQGTTVTVSSGGGGSGGGGSGGGGSQSVLTQPASVSGSPGQSITISCTGTSSDVGGYNYVSWYQQHPGKAPKLMIYEGSKRPSGVSNRFSGSKSGNTASLTISGLQAEDEADYYCSSYTTRSTRVFGGGTKLTVLG	no binding
